Molecular target: SF9 affinity purified rat FPT (Rattus norvegicus, UniProt Q02293+Q04631)
Construct: made in house; host or cells: Sf9 insect cells
Assay: PFT (farnesyl protein transferase) inhibitory activity, radiolabeled farnesyl pyrophosphate / biotinyl peptide bead assay
Assay type: biochemical
Settings: average of two tests unless n is given in parentheses; read-out: FTase, IC50
pIC50: −log10 of the molar value.
Property: pIC50

Examples with their reported pIC50 follow.
INSERT INTO assay_data (compound, measured_result) VALUES
  ('O=C1C(=Cc2ccc([N+](=O)[O-])cc2)CCc2cc(OCCn3ccnc3)ccc21', 5.77),
  ('CC(COc1ccc2c(c1)CCCC2=O)n1ccnc1 (stereo not drawn)', 5.59),
  ('O=C1/C(=C/c2cccs2)COc2cc(OCCn3ccnc3)ccc21', 6.66),
  ('O=C1C(=Cc2cccc3ccccc23)CCc2cc(OCCn3ccnc3)ccc21', 5.89),
  ('O=C1C(=Cc2ccoc2)CCc2cc(OCCn3ccnc3)ccc21', 5.80);

[P] O=C1C(=Cc2ccc(Br)cc2)CCc2cc(OCCn3ccnc3)ccc21
[Q] O=C1c2ccc(OCCn3ccnc3)cc2CCC1Cc1ccc(Br)cc1 (stereo not drawn)
[R] O=C1C(=Cc2sccc2Oc2ccccc2)CCc2cc(OCCn3ccnc3)ccc21
[S] O=C1CC(c2ccccc2)Oc2cc(OCCn3ccnc3)ccc21 (stereo not drawn)
Sort the compounds on pIC50; start with the lowest figure. Kindly provide the labels arranged according to the requested ordering.
R, P, Q, S
(R: 5.51, P: 5.86, Q: 6.54, S: 6.92)
